# experiment-summary: PK data for BTK CTMs (in vivo plasma concentrations)
# test-parameters: Mouse Balb/c, 90 mg/kg PO
# Source text: The present example evaluates in vivo plasma concentrations of BTK CTMs to develop PK-PD-efficacy relationship and predict human exposure.
metric-name: bioavailability (%)
Only the number, expressed in %, is required.

Exam item: Returns the measured bioavailability for the input compound. Input: NC(=O)c1ncc(N2CCCCC2)nc1Nc1ccc(C2CCN(C[C@@H]3CCN(c4ccc5c(c4)C(=O)N(C4CCC(=O)NC4=O)C5=O)C3)CC2)cc1 (stereo partly shown)
Marked response: 1

----------
# target-system: BTK (Mus musculus)
# Construct: from tissue; host or cells: mouse blood B cells / splenocytes (CD-1 or BALB/c)
# Sequence (P35991 whole entry): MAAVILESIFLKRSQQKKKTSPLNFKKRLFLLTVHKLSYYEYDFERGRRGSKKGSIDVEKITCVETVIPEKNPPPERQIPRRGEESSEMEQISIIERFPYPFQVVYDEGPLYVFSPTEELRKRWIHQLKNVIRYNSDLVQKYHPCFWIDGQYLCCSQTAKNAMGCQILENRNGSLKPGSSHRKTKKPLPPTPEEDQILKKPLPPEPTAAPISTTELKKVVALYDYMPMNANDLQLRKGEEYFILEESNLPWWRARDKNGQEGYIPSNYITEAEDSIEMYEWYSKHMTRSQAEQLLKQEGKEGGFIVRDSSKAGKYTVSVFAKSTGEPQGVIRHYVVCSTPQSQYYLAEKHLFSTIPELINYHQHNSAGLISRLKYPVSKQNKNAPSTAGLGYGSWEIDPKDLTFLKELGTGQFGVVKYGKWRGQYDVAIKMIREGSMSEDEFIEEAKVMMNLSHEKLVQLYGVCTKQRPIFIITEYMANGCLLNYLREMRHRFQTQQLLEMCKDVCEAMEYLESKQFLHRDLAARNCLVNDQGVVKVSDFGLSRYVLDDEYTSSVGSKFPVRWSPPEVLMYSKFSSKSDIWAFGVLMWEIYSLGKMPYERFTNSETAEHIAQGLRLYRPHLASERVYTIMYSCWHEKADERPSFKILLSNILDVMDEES
# experiment-summary: In vivo degradation of BTK in mouse PD experiments with oral dosing
# test-parameters: oral dose 10 mg/kg, 24 h, blood, flow cytometry
metric-name: % BTK Remaining (%)
Only the number, expressed in %, is required.

Worked examples, 4 compounds total:
[[record]]
compound = "NC(=O)c1ncc(N2CCCCC2)nc1Nc1ccc(C2CCN(C[C@@H]3CCN(c4ccc5c(c4)C(=O)N(C4CCC(=O)NC4=O)C5=O)C3)CC2)cc1 (some centres unmarked)"
val = 27

[[record]]
compound = "CN1CCN([C@@H]2CCCN(c3cnc(C(N)=O)c(Nc4ccc(C5CCN(CC6CCN(c7ccc(C(=O)N[C@@H]8CCC(=O)NC8=O)nc7)CC6)CC5)cc4)n3)C2)C1=O"
val = 63

[[record]]
compound = "CN1CCN([C@@H]2CCCN(c3cnc(C(N)=O)c(Nc4ccc(C5CCN(CC6CCN(c7ccc(C(=O)N[C@H]8CCC(=O)NC8=O)nc7)CC6)CC5)cc4)n3)C2)C1=O"
val = 25

[[record]]
compound = "CN1CCN([C@H]2CCCN(c3cnc(C(N)=O)c(Nc4ccc(N5CCC6(CCN(c7ccc8c(c7)C(=O)N(C7CCC(=O)NC7=O)C8=O)CC6)CC5)nc4)n3)C2)C1=O (some centres unmarked)"
val = 59


Please examine the following record next.
Exam item: Returns the measured % BTK Remaining for the input compound. Input: CN1CCN([C@@H]2CCCN(c3cnc(C(N)=O)c(Nc4ccc(N5CCC6(CC5)CCN(c5ccc7c(c5)C(=O)N(C5CCC(=O)NC5=O)C7=O)CC6)cc4)n3)C2)C1=O (some centres unmarked)
Marked response: 47

----------
Below, each of the molecules is paired with its reported IL-2 Secretion Anti-CD3/Anti-CD28 Stimulation value.
# Test system: primary human T cells
# experiment-summary: T cell activation assay, IL-2 secretion (ELISA)
# Format: cell-based
# test-parameters: 1.4 nM; fold-change of response relative to baseline
# Protocol: This example evaluates whether CTMs with IMiD activity affect T cell activation. […] These assays were performed to assess whether BTK CTMs with and without IMiD activity affected activation of primary human T cells after stimulation of the T cell receptor with anti-CD3/ati-CD28 stimulation. T cell activation was measured by IL-2 secretion (ELISA assay) and upregulation of activation markers CD25 and CD69 on the surface of T cells (flow cytometry). […]
Give only the figure.

Worked examples, 4 molecules total:
[[record]]
molecule = "CN1CCN([C@H]2CCCN(c3cnc(C(N)=O)c(Nc4ccc5c(c4)CCN(CC4CN(c6ccc7c(c6)C(=O)N(C6CCC(=O)NC6=O)C7=O)C4)C5)n3)C2)C1=O (some centres unmarked)"
target_system = "primary human T cells"
val = 1.53

[[record]]
molecule = "CN1CCN([C@@H]2CCCN(c3cnc(C(N)=O)c(Nc4ccc(C5CCN(CCCNc6cccc7c6C(=O)N(C6CCC(=O)NC6=O)C7=O)CC5)cc4)n3)C2)C1=O (some centres unmarked)"
target_system = "primary human T cells"
val = 1.62

[[record]]
molecule = "CN1CCN([C@@H]2CCCN(c3cnc(C(N)=O)c(Nc4ccc(OCCCNc5ccc6c(c5)C(=O)N(C5CCC(=O)NC5=O)C6=O)cc4)n3)C2)C1=O (some centres unmarked)"
target_system = "primary human T cells"
val = 1.28

[[record]]
molecule = "Nc1cccc2c1C(=O)N(C1CCC(=O)NC1=O)C2=O (centres unmarked) [Pomalidomide, pomalidomide, reference compound]"
target_system = "primary human T cells"
val = 1.31


Exam item: Returns the measured IL-2 Secretion Anti-CD3/Anti-CD28 Stimulation for the input molecule. Input: CN1CCN([C@@H]2CCCN(c3cnc(C(N)=O)c(Nc4ccc(C5CCN(C(=O)CCOCCNc6cccc7c6C(=O)N(C6CCC(=O)NC6=O)C7=O)CC5)cc4)n3)C2)C1=O (some centres unmarked)
Marked response: 2.42

Exam item: Returns the measured IL-2 Secretion Anti-CD3/Anti-CD28 Stimulation for the input molecule. Input: CN1CCN([C@@H]2CCCN(c3cnc(C(N)=O)c(Nc4ccc(C5CCN(C6CN(c7ccc8c(c7)C(=O)N(C7CCC(=O)NC7=O)C8=O)C6)CC5)cc4)n3)C2)C1=O (some centres unmarked)
Marked response: 1.22

Exam item: Returns the measured IL-2 Secretion Anti-CD3/Anti-CD28 Stimulation for the input molecule. Input: CN1CCN([C@H]2CCCN(c3cnc(C(N)=O)c(Nc4ccc(C5CCN(CC6CCN(c7ccc(C(=O)NC8CCC(=O)NC8=O)nc7)CC6)CC5)cc4)n3)C2)C1=O (some centres unmarked)
Marked response: 1.19

Exam item: Returns the measured IL-2 Secretion Anti-CD3/Anti-CD28 Stimulation for the input molecule. Input: CN1CCN([C@@H]2CCCN(c3cnc(C(N)=O)c(Nc4ccc(C5CCN(C[C@H]6CCN(c7ccc8c(c7)C(=O)N(C7CCC(=O)NC7=O)C8=O)C6)CC5)cc4)n3)C2)C1=O (some centres unmarked)
Marked response: 1.43

Exam item: Returns the measured IL-2 Secretion Anti-CD3/Anti-CD28 Stimulation for the input molecule. Input: CN1CCN([C@@H]2CCCN(c3cnc(C(N)=O)c(Nc4ccc(C5CCN(C[C@H]6CC[C@H](Nc7cccc8c7C(=O)N(C7CCC(=O)NC7=O)C8=O)CC6)CC5)cc4)n3)C2)C1=O (some centres unmarked)
Marked response: 1.77

Exam item: Returns the measured IL-2 Secretion Anti-CD3/Anti-CD28 Stimulation for the input molecule. Input: CN1CCN([C@@H]2CCCN(c3cnc(C(N)=O)c(Nc4ccc(N5CC6(C5)CN(c5ccc7c(c5)C(=O)N(C5CCC(=O)NC5=O)C7=O)C6)cc4)n3)C2)C1=O (some centres unmarked)
Marked response: 1.48

Exam item: Returns the measured IL-2 Secretion Anti-CD3/Anti-CD28 Stimulation for the input molecule. Input: CN1CCN([C@@H]2CCCN(c3cnc(C(N)=O)c(Nc4ccc(N5CCN(CCCCc6cccc7c6CN(C6CCC(=O)NC6=O)C7=O)CC5)cc4)n3)C2)C1=O (some centres unmarked)
Marked response: 1.59

----------
# experiment-summary: PK data for BTK CTMs (in vivo plasma concentrations)
# test-parameters: Mouse Balb/c, 30 mg/kg PO
metric-name: AUC (µM·h)
Only the number, expressed in µM·h, is required.

Worked examples, 5 compounds total:
[[record]]
compound = "CN1CCN([C@H]2CCCN(c3cnc(C(N)=O)c(Nc4cnn(C5CCN(CC6CCN(c7ccc8c(c7)C(=O)N(C7CCC(=O)NC7=O)C8=O)CC6)CC5)c4)n3)C2)C1=O (some centres unmarked) [Compound 83]"
readout_unit = "µM·h"
val = 0.81

[[record]]
compound = "CN1CCN([C@@H]2CCCN(c3cnc(C(N)=O)c(Nc4ccc(N5CCC6(CC5)CCN(c5ccc7c(c5)C(=O)N(C5CCC(=O)NC5=O)C7=O)CC6)cc4)n3)C2)C1=O (some centres unmarked) [Compound 55]"
readout_unit = "µM·h"
val = 74.3

[[record]]
compound = "CN1CCN([C@@H]2CCCN(c3cnc(C(N)=O)c(Nc4ccc(C5CCN(C6CN(Cc7ccc8c(c7)CN(C7CCC(=O)NC7=O)C8=O)C6)CC5)cc4)n3)C2)C1=O (some centres unmarked) [Compound 86]"
readout_unit = "µM·h"
val = 0.34

[[record]]
compound = "CN1CCN([C@H]2CCCN(c3cnc(C(N)=O)c(Nc4ccc(C5CCN(CC6CCN(c7ccc(C(=O)NC8CCC(=O)NC8=O)nc7)CC6)CC5)cc4)n3)C2)C1=O (some centres unmarked) [Compound 130]"
readout_unit = "µM·h"
val = 2.3

[[record]]
compound = "NC(=O)c1ncc(N2CCCCC2)nc1Nc1ccc(C2CCN(C[C@@H]3CCN(c4ccc5c(c4)C(=O)N(C4CCC(=O)NC4=O)C5=O)C3)CC2)cc1 (some centres unmarked) [Compound 149]"
readout_unit = "µM·h"
val = 27.7


Exam item: Returns the measured AUC for the input compound. Input: CN1CCN([C@@H]2CCCN(c3cnc(C(N)=O)c(Nc4ccc(C5CN(C6CCN(c7ccc8c(c7)C(=O)N(C7CCC(=O)NC7=O)C8=O)CC6)C5)cc4)n3)C2)C1=O (some centres unmarked) [Compound 37]
Marked response: 1.79

Exam item: Returns the measured AUC for the input compound. Input: CN1CCN([C@@H]2CCCN(c3cnc(C(N)=O)c(Nc4ccc(C5CCN(C6CN(c7ccc8c(c7)C(=O)N(C7CCC(=O)NC7=O)C8=O)C6)CC5)cc4)n3)C2)C1=O (some centres unmarked) [Compound 53]
Marked response: 96

Exam item: Returns the measured AUC for the input compound. Input: CN1CCN([C@@H]2CCCN(c3cnc(C(N)=O)c(Nc4ccc(C5CCN(CC6CCN(c7ccc(-c8nn(C9CCC(=O)NC9=O)c(=O)n8C)cc7)CC6)CC5)cc4)n3)C2)C1=O (some centres unmarked) [Compound 121]
Marked response: 2.22
